Assign log10 IC50 to each entry below.
- targetOfAssay: SARS-CoV-2 spike receptor-binding domain (RBD) (SARS-CoV-2, UniProt P0DTC2 319-541)
- testDescription: indirect ELISA on coated RBD ('ELISA affinity')
Please be aware that the numbers have been log10-transformed from IC50 in nM.

Req: Name the reported log10 IC50 value associated with the binder Nb36 (VHH) VHH: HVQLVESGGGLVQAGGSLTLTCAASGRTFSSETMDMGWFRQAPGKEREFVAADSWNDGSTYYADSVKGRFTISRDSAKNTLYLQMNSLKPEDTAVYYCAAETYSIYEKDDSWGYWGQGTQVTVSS
Resp: 0.02

Req: Name the reported log10 IC50 value associated with the binder Nb97 (VHH) VHH: HVQLVESGGGLVQAGGSLRLSCAAPGRTFSTSAMGWFRQAPGKEREFVAAIDWSNTNIHYADTVKGRFTISTDTAKNTVYLQMNNLKPEDTAVYYCAQGGWGLTQPISVDYWGKGTQVTVSS
Resp: -0.49

Req: Name the reported log10 IC50 value associated with the binder Nb41 (VHH) VHH: DVQLVESGGGLVQAGGSLRLSCAASGFTFSNYVMYWGRQAPGKGREWVSGIDSDGSDTAYASSVKGRFTISRDNAKKTLYLQMNDLKPEDTALYYCVKSKDRYGSPWTRSEFEDYWGQGTQVTVSS
Resp: -0.70

Req: Name the reported log10 IC50 value associated with the binder Nb93 (VHH) VHH: EVQLVESGGGLVQPGGSLRLSCAASGFTFSSYAMSWVRQAPGKGREWVAGITPGSGTFYADSVKGRFTISRDNAKNTLSLEINSLKPEDTALYYCAKCRQEFSWDFSSRDPDDFDYWGQGTQVTVSS
Resp: 0.06

Req: Name the reported log10 IC50 value associated with the binder Nb63 (VHH) VHH: QVQLVESGGGLVQAGGSLRLSCVASGSGFEPNAMGWYRQAPGKQRELVAGITSGGNANYADSVKGRFTISRDNVKNTVYLQMNSLKPEDTAVYYCQGPACSGSGCRNYWGQGTQVTVSS
Resp: -0.08

Req: Name the reported log10 IC50 value associated with the binder Nb60 (VHH) VHH: HVQLVESGGGLVQAGDSLRLSCAASERTNINYAMGWFRQAPGKERDFVAAIGWNGSIIKYAESVKGRFTISRDDAKNTVSLQMNSLKPEDTAVYYCAARIGSIANLQPREYEFAYWGQGTQVTVSS
Resp: 2.14

Req: Name the reported log10 IC50 value associated with the binder Nb66 (VHH) VHH: HVQLVESGGGLVQAGGSLRLSCAASGRTFSVNSIAWFRQAPGKEREFVATINWSGGDIYYADSVKGRFTISRDNGKNTVYLQMNSLKPTDTAVYYCAAARFYGRSIAQDYDSWGQGTQVTVSS
Resp: -0.48

Req: Name the reported log10 IC50 value associated with the binder Nb28 (VHH) VHH: HVQLVESGGGLVQAGGSLRLSCAASGRTFSTSTMDMGWFRQAPGKEREFVGADSWNDGRTYYADSVKGRFTISRDNAKNTLYLQMNNLKPEDTAVYYCAAETYSLYEKSDSWGYWGQGTQVTVSS
Resp: -0.04
